viability, T/C values by entry
Tested on: 186277-243-T-J2-PDC complex spheroid growth;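 also: luminescent signal used as a stand-in for viable cell amount; spheroids exposed to compounds for seven days before the viability read; 100% = DMSO vehicle control wells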
ASSAY OVERVIEW: Anticancer human tumor 186277-243-T-J2-PDC patient-derived colon adenocarcinoma cell line growth inhibition [AhR]
EXPERIMENTAL CONDITIONS: second compound 10 µM; first compound 3.16 µM; active compounds read low
Description: Multicellular complex tumor spheroid response to aryl hydrocarbon receptor antagonists in combination with a variety of drugs and investigational agents in selected tumor cell lines […] Compounds. […] If the clinical Cmax for an agent had not been determined, the highest concentration tested was 10 microM (Table 1). […]

Prompt: # lookup: viability, T/C of Nc1ccn(C2OC(CO)C(O)C2(F)F)c(=O)n1 (stereo not drawn) + Cc1cncc(-c2nc(NCCc3c[nH]c4ccccc34)c3ncn(C(C)C)c3n2)c1
Response: 9.28%

Prompt: # lookup: viability, T/C of COc1cc(C2c3cc4c(cc3C(OC3OC5COC(C)OC5C(O)C3O)C3COC(=O)C23)OCO4)cc(OC)c1O (stereo not drawn) + Cc1cncc(-c2nc(NCCc3c[nH]c4ccccc34)c3ncn(C(C)C)c3n2)c1
Response: 22.9%

Could you now consider this next molecule?
Prompt: # lookup: viability, T/C of COc1ccc([C@@H](O)c2cc(-c3ncnc4cc(N5CCOCC5)ccc34)c(F)cc2Cl)nn1 + Cc1ccccc1N=Nc1ccc(NC(=O)c2ccnn2C)c(C)c1
Response: 90.9%
